test system: ATS95; test: qHTS profiling for inhibitors of Plasmodium falciparum proliferation (AID 504749); further: nearly all actives have a fitted effect of over 60% in size; conditions: P. falciparum in erythrocytes, SYBR Green DNA, 72 h; series mostly up to 12.8 µM
Results filed as inconclusive are left out. Active and inactive are the calls of the source. The call rests on the fitted dose curve; in most records, active means well fitted inhibition curve with a large enough effect; inconclusive means small, poorly fitted or top-dose-only effect; inactive means flat fitted curve, though single readings scatter.
Write down the outcome that applies. Available outcomes: yes (1) = active, no (0) = inactive

Asked: Just curious, what result did CN[C@@H]1[C@H](O[C@@H]2O[C@H](CO)[C@@H](N)[C@H](O)[C@@H]2O)O[C@H]2C[C@@H](N)[C@@H](O[C@H]3[C@@H](O)[C@H](O)[C@H](N)C[C@@H]3N)O[C@H]2[C@H]1O get here?
Given back: no (0)

Asked: Further, for NC(=O)c1cc[n+](CC2=C(C(=O)O)N3C(=O)[C@@H](NC(=O)[C@H](c4ccccc4)S(=O)(=O)[O-])[C@@H]3SC2)cc1 ?
Given back: yes (1)

Asked: Further, for CC(C)(O/N=C(\C(=O)N[C@@H]1C(=O)N2C(C(=O)[O-])=C(C[n+]3ccccc3)CS[C@@H]12)c1csc(N)n1)C(=O)O ?
Given back: no (0)

====

experiment: qHTS Assay for Lipid Storage Modulators (AID 1519); settings: Drosophila S3 cells, BODIPY lipid droplet/cell ratio, laser cytometry; measured here: lipid channel max response; cells loaded with oleic acid
Inconclusive results are not listed.
property_name: max response (%)
Write the value in % as a bare number.

• COc1cccc(-c2nccc(NC3CCNCC3)n2)c1 = 1.95
• COC(=O)N1CCC2(CCCN(c3ccncc3)C2)CC1 = 29.2

Note: attention shifts to another entry.
Asked: Data request, read-out max response, for COCC(=O)N1CCC2(CCCN(c3ccc(-c4ccccc4)cc3)C2)CC1
Given back: 14.9

====

target: Lysosomal acid glucosylceramidase (Homo sapiens) (UniProt P04062); assay: Glucocerebrosidase-p2 (AID 348); settings: purified GBA, blue fluorogenic substrate, 40 min; further: potency means the concentration at half of the fitted maximal effect
Sequence (P04062 whole entry, looked up): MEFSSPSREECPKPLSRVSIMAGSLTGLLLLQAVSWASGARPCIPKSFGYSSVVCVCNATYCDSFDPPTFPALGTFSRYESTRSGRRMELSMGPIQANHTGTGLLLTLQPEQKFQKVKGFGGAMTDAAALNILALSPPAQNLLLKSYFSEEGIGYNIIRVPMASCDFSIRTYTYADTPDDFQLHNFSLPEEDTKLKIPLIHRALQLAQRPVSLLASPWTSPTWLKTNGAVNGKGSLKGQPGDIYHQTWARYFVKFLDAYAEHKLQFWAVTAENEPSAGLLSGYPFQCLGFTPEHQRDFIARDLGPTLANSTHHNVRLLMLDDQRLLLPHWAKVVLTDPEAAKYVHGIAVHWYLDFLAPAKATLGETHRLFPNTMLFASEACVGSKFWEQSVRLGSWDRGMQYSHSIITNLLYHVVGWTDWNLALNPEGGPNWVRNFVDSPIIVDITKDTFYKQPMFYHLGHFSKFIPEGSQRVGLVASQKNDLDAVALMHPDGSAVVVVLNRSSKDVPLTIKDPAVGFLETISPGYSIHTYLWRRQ
The source made the active and inactive calls. No stated cut-off is given here; in the data, active means potency below about 10 µM; inactive means the rest.
property_name: Potency

Reference set (2 entries):
* CC(=O)N1CCC2(CC1)CN(c1cccc(-c3ccccc3)c1)C2 | > 11.4 µM (inactive)
* CC(C)NC(=O)N1CCC2(CC1)CCN(C(=O)c1cccn1C)CC2 | > 11.4 µM (inactive)

Asked: Data request, read-out Potency, for O=C(c1ccco1)N1CCC2(CC1)CCN(c1ccccn1)CC2
Given back: > 11.4 µM (inactive)

Asked: Further, for O=C(c1cnccn1)N1CCC2(CC1)CN(Cc1cc(C(F)(F)F)cc(C(F)(F)F)c1)C2 ?
Given back: > 11.4 µM (inactive)

Asked: Further, for CS(=O)(=O)N1CCC2(CC1)CN(C(=O)Nc1cccc(F)c1)C2 ?
Given back: > 11.4 µM (inactive)

Asked: Further, for COc1ccc(-n2c(=O)c(-c3cc(F)cc(F)c3)nc3cnc(N4CCOCC4)nc32)cc1 ?
Given back: > 11.4 µM (inactive)

Asked: Further, for O=C(c1cccc(F)c1)N1CCC2(CC1)CN(c1ncccn1)C2 ?
Given back: > 11.4 µM (inactive)

Asked: Further, for Cn1cccc1C(=O)N1CCC2(CCCN(Cc3nccs3)C2)CC1 ?
Given back: > 11.4 µM (inactive)

Asked: Further, for COc1ccc(NC(=O)N2CC3(CCN(C(=O)c4cc(C(F)(F)F)cc(C(F)(F)F)c4)CC3)C2)cc1 ?
Given back: > 11.4 µM (inactive)

Asked: Further, for COCC(=O)N1CCC2(CCCN(c3ccccn3)C2)CC1 ?
Given back: > 11.4 µM (inactive)
